# System: TK-10 renal
# procedureText: NCI-60 one-dose screen, 48 h (100 = growth as untreated, 0 = no growth, -100 = all killed)
# details: 10 µM
This is part of a sample that, as a whole, favours compounds with a hit. Of some 83,000 tested, about 20% had one in any assay.
Mark Y for reported growth of 80% or greater; mark N for anything smaller.

Field: example entries. Status: answers known.
>  <chemicalString>
O=C(O)c1ccc(Cl)cc1Nc1ccc(F)cc1

>  <classAssignment>
Y

$$$$
>  <chemicalString>
COc1cc(-c2nnc(-c3c(-c4ccc(F)cc4)nc4ccccn34)o2)cc(OC)c1OC

>  <classAssignment>
Y

$$$$

We now examine a further compound.
Confirm if growth reported for the compound `O=C(Nc1cccc(-n2cc(-c3ccncc3)c(-c3ccc(O)c(Cl)c3)n2)c1)c1cc(C(F)(F)F)cc(C(F)(F)F)c1` is 80% or above.
N

---

# Test system: OVCAR-8 ovarian
# procedureText: NCI-60 one-dose screen, 48 h (100 = growth as untreated, 0 = no growth, -100 = all killed)
# details: 10 µM
The panel holds about 83,000 compounds, 20% with a hit somewhere; the sample as a whole holds those more often.
Provide the recorded growth for the entries that follow.
One number for each entry, in %.

Record excerpt, results attached:
>  <compound>
CN1CCCNc2c(c(=O)c2=O)NCCCN(C)CCCNc2c(c(=O)c2=O)NCCCN(C)CCCNc2c(c(=O)c2=O)NCCCN(C)CCCNc2c(c(=O)c2=O)NCCCN(C)CCCNc2c(c(=O)c2=O)NCCCN(C)CCCNc2c(c(=O)c2=O)NCCCN(C)CCCNc2c(c(=O)c2=O)NCCC1

>  <readoutNumber>
18.9

$$$$
>  <compound>
Fc1ccc2nc(-c3nc(-c4ccccc4)n4ccccc34)[nH]c2c1

>  <readoutNumber>
-58.7

$$$$
>  <compound>
CS(=O)(=O)Nc1ccc(Nc2c3ccccc3nc3cc([N+](=O)[O-])ccc23)cc1

>  <readoutNumber>
16.6

$$$$
>  <compound>
COc1ccc2c(c1)C(=O)c1c-2c(OCCN(C)C)nc2cc(OC)c(OC)cc12

>  <readoutNumber>
37.2

$$$$
>  <compound>
COC(=O)C(C(C[N+](=O)[O-])c1ccccc1)=P(c1ccccc1)(c1ccccc1)c1ccccc1 (stereo not drawn)

>  <readoutNumber>
93.4

$$$$
>  <compound>
CN(C)CCN=c1nc2c(c(N)n1-c1ccccc1)c(=S)n(-c1ccccc1)c(=S)n2-c1ccccc1

>  <readoutNumber>
33.6

$$$$
>  <compound>
Cc1cccc(Cl)c1NC(=O)c1ccc2nc(NC(=O)NC3CCN(C)CC3)sc2c1

>  <readoutNumber>
94.6

$$$$
>  <compound>
CO/N=C(/C(=O)NC1C(=O)N2C(C(=O)O)=C(COC(N)=O)CSC12)c1ccco1 (stereo not drawn)

>  <readoutNumber>
108

$$$$
>  <compound>
CC(C)(C)NC/C(=C\c1ccccc1)C(=O)c1ccccc1

>  <readoutNumber>
-29.1

$$$$
>  <compound>
COc1cc(OC)cc(-c2cncn2-c2ccc(-c3nc4cc(OC)cc(OC)c4s3)cc2)c1

>  <readoutNumber>
80.7

$$$$

Quick batch: growth for everything below.
1. O=C(O)C(SC(C(=O)O)c1ccccc1)c1ccccc1 (stereo not drawn)
2. O=C(Nc1ccncc1)C(=O)c1cn(S(=O)(=O)c2cccc(Cl)c2)c2ccccc12
3. CC(C)=CCc1ccc(O)c(=O)cc1C(C)C
4. O=C1C(c2ccccc2)C2C=CC(C2)N1O (stereo not drawn)
5. Cc1cc(C)c(NC(=O)c2sc3nc4c(cc3c2N)C(=O)CCC4)c(C)c1
6. CCOC(=O)N1C/C(=C/c2ccc(F)cc2)C(=O)/C(=C/c2ccc(F)cc2)C1

110
76.2
12.4
104
45.6
9.76

Consider the following items and state reported growth for each.
1. CC1(O)CCC2CC3OC3(C)CCC3OC3(C)CCC1C2(C)C (stereo not drawn)
2. O=C(Nc1cccc(-n2cc(-c3ccncc3)c(-c3cc(O)cc(Cl)c3)n2)c1)c1ccc(N2CCOCC2)c(C(F)(F)F)c1
3. COc1cc(-c2cc(/C=C3\C(=O)Nc4cc(Cl)ccc43)[nH]n2)cc(OC)c1OC
4. Cc1cn(C2CCCCO2)c(=O)nc1NO (stereo not drawn)
5. CN(C)c1ccc(-c2cc(-c3cccc(NS(C)(=O)=O)c3)nc(N)c2C#N)cc1
6. Cc1cc(Nc2ccc(Cl)cc2)nc(NCCCNc2ccnc3cc(Cl)ccc23)n1
7. COc1ccc(-c2nn(-c3cccc(NC(=O)c4ccc5c(c4)OCCO5)c3)cc2-c2ccncc2)cc1Cl
8. Cc1ccc(Nc2nnc(-c3cc(-c4ccncc4)n(-c4ccccc4)n3)s2)cc1

83
22.7
23.9
101
30
-53.5
29.6
63.5

// each listed compound needs a value for growth
1. COc1cc(/C=C\c2cc(OC)c(OC)c(OC)c2)cc(NS(=O)(=O)c2ccc(Cl)cc2)c1OC
2. Cc1ncc(-c2ccoc2)c(NC2CCCCCC2)n1
3. COc1ccc(-c2nc3sccn3c2-c2nc3c([nH]2)C(=O)c2ccccc2C3=O)cc1

1. 17.1
2. 99.1
3. 96.2

Missing value: growth, OVCAR-8 ovarian, entry `COc1ccc(Oc2nc(NC3CCCC3)nc(Sc3ccc(OC)cc3)n2)cc1` . Fill in?
65.4

The measured values listed here are drawn from PubChem BioAssay (NCI).
